Sourced from patent US8476261B2

Biological target: recombinant full-length human GSK3β (Homo sapiens, UniProt P49841)
Construct: recombinant full-length human GSK3β (Upstate); purchased Upstate
Sequence (P49841 whole entry): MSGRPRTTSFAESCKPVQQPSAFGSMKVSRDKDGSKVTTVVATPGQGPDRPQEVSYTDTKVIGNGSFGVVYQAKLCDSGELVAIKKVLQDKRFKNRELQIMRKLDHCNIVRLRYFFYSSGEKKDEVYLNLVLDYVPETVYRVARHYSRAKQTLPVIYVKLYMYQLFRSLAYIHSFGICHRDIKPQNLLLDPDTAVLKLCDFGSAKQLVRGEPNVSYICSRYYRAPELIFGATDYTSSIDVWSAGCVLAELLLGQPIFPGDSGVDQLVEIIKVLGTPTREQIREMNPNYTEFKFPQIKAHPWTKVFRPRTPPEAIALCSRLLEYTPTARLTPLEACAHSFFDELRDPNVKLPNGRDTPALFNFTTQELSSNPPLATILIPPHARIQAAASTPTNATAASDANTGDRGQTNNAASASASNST
Assay: cell-free GSK3 kinase assay (KinaseGlo luciferase)
Type: biochemical
Details: Table 1; 5 μM ATP, 1 hour at 30 degrees Celsius
pIC50: −log10 of the molar value.
property: pIC50

Completed entries (count: 4):
{"compound": "COc1ccc(C(CCNc2c(F)c(N)c3c(=O)c(C(=O)O)cn4c3c2OCC42CCCC2)c2ccc(F)cc2)cc1 (centres unmarked)", "target": "recombinant full-length human GSK3β (Homo sapiens, UniProt P49841)", "assay.value": "> 7.82"}
{"compound": "Cc1cc(C)n(CCCNc2c(F)c(N)c3c(=O)c(C(=O)O)cn4c3c2OCC42CCCC2)n1", "target": "recombinant full-length human GSK3β (Homo sapiens, UniProt P49841)", "assay.value": "7.22 to 7.80"}
{"compound": "CCN(CCCNc1c(F)c(N)c2c(=O)c(C(=O)O)cn3c2c1OCC31CCCC1)c1ccccc1", "target": "recombinant full-length human GSK3β (Homo sapiens, UniProt P49841)", "assay.value": "> 7.82"}
{"compound": "Nc1c(F)c(NCCNc2ccccn2)c2c3c1c(=O)c(C(=O)O)cn3C1(CCC1)CO2", "target": "recombinant full-length human GSK3β (Homo sapiens, UniProt P49841)", "assay.value": "7.22 to 7.80"}

Ask: Using the record for Nc1c(F)c(NCCCc2ccccc2Cl)c2c3c1c(=O)c(C(=O)O)cn3C1(CCCC1)CO2 , report its pIC50.
Result: > 7.82

----------
Target: recombinant full-length human GSK3β (Homo sapiens, UniProt P49841)
Construct: recombinant full-length human GSK3β (Upstate); purchased Upstate
Assay: cell-free GSK3 kinase assay (KinaseGlo luciferase)
Type: biochemical
Settings: Table 1; 5 μM ATP, 1 hour at 30 degrees Celsius
# IC50 per entry

Ask: Param readout = IC50; param system = recombinant full-length human GSK3β (Homo sapiens, UniProt P49841); param query = Nc1c(F)c(NCCNc2ccccn2)c2c3c1c(=O)c(C(=O)O)cn3C1(CCCC1)CCO2 [Compound 48] ; response: value
Result: > 150 nM

Ask: What do we get for Nc1c(F)c(NCCCN2CCCc3ccccc32)c2c3c1c(=O)c(C(=O)O)cn3C1(CCCC1)CO2 [Compound 5] ?
Result: 16 to 60 nM

Ask: What do we get for Nc1c(F)c(NC2CCN(c3ccccn3)C2)c2c3c1c(=O)c(C(=O)O)cn3C1(CCC1)CCO2 (stereo not shown) [Compound 62] ?
Result: > 150 nM

Ask: What do we get for Nc1c(F)c(NCCCNC(=O)C23CC4CC(CC(C4)C2)C3)c2c3c1c(=O)c(C(=O)O)cn3C1(CCCC1)CO2 [Compound 8] ?
Result: 16 to 60 nM

Ask: What do we get for Nc1c(F)c(N[C@H]2C[C@H]2Cc2ccccn2)c2c3c1c(=O)c(C(=O)O)cn3C1(CCCC1)CO2 [Compound 63] ?
Result: > 150 nM

Ask: What do we get for Nc1c(F)c(NCCSc2c[nH]c3ccccc23)c2c3c1c(=O)c(C(=O)O)cn3C1(CCCC1)CO2 [Compound 11] ?
Result: < 15 nM

Ask: What do we get for Nc1c(F)c(NCCNc2ccccn2)c2c3c1c(=O)c(C(=O)O)cn3C1(CCC1)CCO2 [Compound 47] ?
Result: 16 to 60 nM
